- Experimental target: T1, recombinant YFV E protein (soluble E, sE; YFV Asibi strain) (Yellow fever virus, Asibi strain, UniProt Q6DV88 286-678)
- T1 construct: also called YFV E antigen; YFV E monomer
- T1 sequence (Q6DV88 286-678): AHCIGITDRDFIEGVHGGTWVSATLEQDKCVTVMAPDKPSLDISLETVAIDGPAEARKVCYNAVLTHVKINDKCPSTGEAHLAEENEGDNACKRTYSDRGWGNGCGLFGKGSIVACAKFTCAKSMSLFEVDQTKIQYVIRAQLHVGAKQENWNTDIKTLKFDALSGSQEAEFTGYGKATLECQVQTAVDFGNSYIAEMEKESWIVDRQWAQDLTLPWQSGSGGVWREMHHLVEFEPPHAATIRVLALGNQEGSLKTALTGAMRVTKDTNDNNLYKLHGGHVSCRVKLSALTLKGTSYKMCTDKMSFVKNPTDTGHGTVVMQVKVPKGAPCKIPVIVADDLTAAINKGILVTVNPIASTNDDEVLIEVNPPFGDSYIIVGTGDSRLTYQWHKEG
- Method: BLI monovalent (IgG on tip)
Please go through the items and note down their Kd.
One number for each entry, in nM.

Worked examples, 3 binders total:
Binder: ADI-49037 (antibody, V domains shown, full-length IgG) VH: EVQLVESGGGVVQPGRSLRLSCAASGFTLSSYVMHWVRQAPGKGLEWVAVISSDGTNKYYADSVKGRFTISRDSSKNTLYLQMNSLRPEDSAVYYCARGQPDYWGQGTLVTVSS VL: EIVLTQSPATLSLSPGERATLSCRASQSVSNYFAWYQQKPGQAPRLLIYGASNRATGVPARFSGSGSGTDFTLTISSLEPEDFAVYYCQQRSNWPYTFGQGTKVEIK
Kd [nM]: 3.53

Binder: ADI-42124 (antibody, V domains shown, full-length IgG) VH: EVQLLESGGGLVQPGGSLRLSCAASGFTFSSYAMSWVRQAPGKGLELVSAISSSGGSTYYADSVKGRFTISRDNSKNTLYLQMNSLRAEDTALYYCAKDLFYDFWTGITIDYWGQGTLVTVSS VL: QPVLTQPRSVSGSPGQSVTISCTGTSSDVGGYNYVSWYQQHPGKAPKLMIYDVSKRPSGVPDRFSGSKSGNTASLTISGLQAEDEADYYCCSYAGSYTFVLFGGGTKLTVL
Kd [nM]: 5.88

Binder: ADI-49041 (antibody, V domains shown, full-length IgG) VH: EVQLVESGGGLVKPGGSLRLSCAASGFTFSHAWMTWVRQAPGKGLEWVGRIKSETDGGTANYAAPVKGRFTISRDDSKNTVYLQMVSLKTEDTAVYYCATAGIFGVVIMKGFDHWGQGTTVTVSS VL: DIVMTQSPSTLSASVGDRVVITCRASQSISNWLAWYQQKSGKAPKLLIYKASRLESGVPSTFSGSGSGTEFTLTISSLQADDFASYYCQQYNDYPWTFGQGTKVEIK
Kd [nM]: 0.997

Query binder follows.
Please look up its Kd: ADI-49183 (antibody, V domains shown, full-length IgG; also called Antibody Number 24) VH: QVQLVESGGGLVKPGGSLRLSCVASGFTFNNYYMRWMRQAPGKGLEWVSQISSSGSIKDYADSVKGRFTVSRDNAKNSLYLQLNSLRADDTAVYFCARELSSRIDYWGQGTLVTVSS VL: QSALTQPASVSGSPGQSITISCTGTGSDVGGYNFVSWYQQHPGKAPKLMLYDVNNRPSGVSNRFSGSKSGNTASLTISGLQAEDEADYYCSSYPGTSALVIFGGGTRLTVL
2.21

Every entry's value here was drawn from patent US20240218054A1.
